test: Kinetic test (plasma concentration after oral or intravenous administration); format: in vivo; details: rat, SD type male rats, fasted overnight, read-out: half-life in blood (converted)
QUANTITY_KIND: half-life (min)
Supply the numeric figure in min, leaving out any unit text.

What half-life value was documented for this compound, CCc1nc2ccccc2c(=O)n1-c1ccc(OCCCN2CCCCC2)cc1 [Example 1] ?
378

---

QUANTITY_KIND: melting point

In the examples that follow, each entry is paired with its recorded melting point.
Cc1nc2ccncc2c(=O)n1-c1ccc(OC2CCN(C3CCCC3)CC2)cc1    140 to 143 °C
Cc1nc2cnccc2c(=O)n1-c1ccc(OC2CCN(C3CCC3)CC2)cc1    169 to 171 °C

Data request, read-out melting point, for `COc1ccc2c(=O)n(-c3ccc(OCCCN4CCC[C@H](C)C4)cc3)c(C)nc2c1`
94 to 96 °C

---

QUANTITY_KIND: melting point

Previously resolved entries follow.
COc1ccc2nc(C)n(-c3ccc(OC4CCN(C5CCC5)CC4)cc3)c(=O)c2c1 [Example 228]    171 to 173 °C
Cc1nc2ccncc2c(=O)n1-c1ccc(OCCCN2CCC[C@H]2C)cc1 [Example 266]    238 to 250 °C
Cc1nc2c(F)cccc2c(=O)n1-c1ccc(OC2CCN(C3CCC3)CC2)cc1 [Example 242]    177 to 179 °C
CCc1nc2ccncc2c(=O)n1-c1ccc(OC2CCN(C3CCC3)CC2)cc1 [Example 109]    186 to 189 °C

Give its melting point value. Item: CCc1nc2ncccc2c(=O)n1-c1ccc(OC2CCN(C3CCC3)CC2)cc1 [Example 111]
146 to 148 °C

Would you mind doing `Cc1nc2ncccc2c(=O)n1-c1ccc(OCCCN2CCC[C@H](C)C2)cc1.Cl` as well?
255 to 262 °C

Next record, please: Cc1nc2ccc(F)cc2c(=O)n1-c1ccc(OC2CCN(C3CCC3)CC2)cc1 [Example 232]
122 to 125 °C

Same for Cc1nc2cnc(F)cc2c(=O)n1-c1ccc(OC2CCN(C3CCC3)CC2)cc1 [Example 230]
161 to 163 °C

Next: Cc1nc2cc(F)ccc2c(=O)n1-c1ccc(OC2CCN(C3CCC3)CC2)cc1 [Example 233]
163 to 166 °C

Now consider Cc1nc2cccc(F)c2c(=O)n1-c1ccc(OCCCN2CCCCC2)cc1 [Example 26] and answer again.
141 to 145 °C

# iterate: Cc1nc2cccc(F)c2c(=O)n1-c1ccc(OCCCN2CCC[C@H]2C)cc1 [Example 260]
125 to 127 °C

Proceed to COc1cc2c(=O)n(-c3ccc(OCCCN4CCCC4)cc3)c(C)nc2cn1 [Example 200]
123 to 126 °C
